I'd appreciate it if you could supply half-life at 1 µM values for the items below.
Assay: Metabolic stability in human liver microsomes assessed as half life at 1 uM measured upto 45 mins in presence of NADPH by LC/MS/MS analysis
Format: ADME, Microsome
One number for each entry, in min.

Recorded half-life at 1 µM, per entry:
SMILES ENTRY	half-life at 1 µM, min
Nc1nonc1-c1nc2ccccc2n1CC(=O)Nc1cccc([N+](=O)[O-])c1	47.5
Nc1nonc1-c1nc2ccccc2n1CC(=O)Nc1cnc2ccccc2c1	159

# ---- query compound ----
Prompt line: Can you look up the measured half-life at 1 µM of `Nc1nonc1-c1nc2ccccc2n1CC(=O)Nc1ccc(Br)c2ccccc12` for me?
Response line: 32.2

###

Experiment: Ratio of drug concentration in brain to plasma of ICR mouse at 10 mg/kg, po measured after 4 hrs
Assay type: ADME, organism-based
ASSAY ENDPOINT: Kp at 4 h
Give bare numbers.

Prompt line: Item `Nc1nonc1-c1nc2ccccc2n1CC(=O)Nc1cnc2ccccc2c1` has what recorded Kp at 4 h?
Response line: 1.54

###

Tested on: BV-2
Assay: Cytotoxicity against mouse BV-2 cells assessed as survival rate at 100 uM incubated for 24 hrs by MTT assay
Format: functional
Assign t whenever Activity does not fall below 80%; assign f whenever it does.

SMILES ENTRY	CLASS LABEL
Cc1ccc2cc(NC(=O)Cn3c(-c4nonc4N)nc4ccccc43)ccc2n1	f

Prompt line: Check if Activity >= 80% (inclusive). Item: `Nc1nonc1-c1nc2ccccc2n1CC(=O)Nc1cccc([N+](=O)[O-])c1`
Response line: t

Prompt line: Next molecule up: `Nc1nonc1-c1nc2ccccc2n1CC(=O)Nc1cccc2ccccc12`
Response line: t

Prompt line: Next up: `Nc1nonc1-c1nc2ccccc2n1CC(=O)Nc1cnc2ccccc2c1`
Response line: f

Prompt line: Lookup `Nc1nonc1-c1nc2ccccc2n1CC(=O)Nc1ccc(Br)c2ccccc12`
Response line: f

###

Molecular target: Cholinesterase (Equus caballus)
Assay: Inhibition of equine serum BChE using butyrylthiocholine iodide as substrate preincubated for 5 mins followed by substrate addition and measured after 2 mins by DTNB-reagent based Ellman's method
ASSAY ENDPOINT: IC50 (nM)
Numbers only, in nM.

Batch request: IC50 per item, same order as input.
1. Nc1nonc1-c1nc2ccccc2n1CC(=O)Nc1ccccc1F
2. Nc1nonc1-c1nc2ccccc2n1CC(=O)Nc1cccc(F)c1F
3. Nc1nonc1-c1nc2ccccc2n1CC(=O)Nc1ccc2ncccc2c1

Response line:
124
270
705

For each listed entry, give its IC50.
1. CC(=O)c1cccc(NC(=O)Cn2c(-c3nonc3N)nc3ccccc32)c1
2. Nc1nonc1-c1nc2ccccc2n1CC(=O)Nc1cccc2ncccc12
3. COC(=O)c1cccc(NC(=O)Cn2c(-c3nonc3N)nc3ccccc32)c1
4. Cc1cc2nc(-c3nonc3N)n(CC(=O)Nc3cnc4ccccc4c3)c2cc1C
5. Nc1nonc1-c1nc2ccccc2n1CC(=O)Nc1cccc(F)c1
6. Nc1nonc1-c1nc2ccccc2n1CC(=O)Nc1ccccc1Cl

Response line:
1: 191; 2: 920; 3: 27; 4: 28500; 5: 1040; 6: 2730

Give IC50 for each listed item.
1. Nc1nonc1-c1nc2ccccc2n1CC(=O)Nc1cnc2ccccc2c1
2. COc1cccc(NC(=O)Cn2c(-c3nonc3N)nc3ccccc32)c1
3. Nc1nonc1-c1nc2ccccc2n1CC(=O)Nc1ccc(Br)c2ccccc12
4. Nc1nonc1-c1nc2ccccc2n1CC(=O)Nc1ccccc1

Response line:
[20, 1710, 6, 2960]

For each of the molecules below, note its IC50.
1. Cc1cc2nc(-c3nonc3N)n(CC(=O)Nc3cccc4ccccc34)c2cc1C
2. Nc1nonc1-c1nc2ccccc2n1CC(=O)Nc1ccc2ccccc2c1
3. Nc1nonc1-c1nc2ccccc2n1CC(=O)Nc1ccnc2ccccc12
4. Nc1nonc1-c1nc2ccccc2n1CC(=O)Nc1cccc(Cl)c1
5. CC(=O)Nc1cccc(NC(=O)Cn2c(-c3nonc3N)nc3ccccc32)c1
6. Nc1nonc1-c1nc2ccccc2n1CC(=O)Nc1ccc2ccccc2n1
7. Nc1nonc1-c1nc2ccccc2n1CC(=O)Nc1cccc(Br)c1
8. Cc1cccc(NC(=O)Cn2c(-c3nonc3N)nc3ccccc32)c1C

Response line:
108
352000
51
33
1130
507
83
326

Each molecule below has a recorded value; state its IC50.
1. Nc1nonc1-c1nc2ccccc2n1CCC(=O)Nc1ccc2ncccc2c1
2. Cc1ccc(NC(=O)Cn2c(-c3nonc3N)nc3ccccc32)cc1

Response line:
253
10300

Prompt line: Recorded IC50 of `COC(=O)c1ccc(NC(=O)Cn2c(-c3nonc3N)nc3ccccc32)cc1` , please.
Response line: 5380

###

Target: UniProtKB P06276
Sequence (P06276 whole entry): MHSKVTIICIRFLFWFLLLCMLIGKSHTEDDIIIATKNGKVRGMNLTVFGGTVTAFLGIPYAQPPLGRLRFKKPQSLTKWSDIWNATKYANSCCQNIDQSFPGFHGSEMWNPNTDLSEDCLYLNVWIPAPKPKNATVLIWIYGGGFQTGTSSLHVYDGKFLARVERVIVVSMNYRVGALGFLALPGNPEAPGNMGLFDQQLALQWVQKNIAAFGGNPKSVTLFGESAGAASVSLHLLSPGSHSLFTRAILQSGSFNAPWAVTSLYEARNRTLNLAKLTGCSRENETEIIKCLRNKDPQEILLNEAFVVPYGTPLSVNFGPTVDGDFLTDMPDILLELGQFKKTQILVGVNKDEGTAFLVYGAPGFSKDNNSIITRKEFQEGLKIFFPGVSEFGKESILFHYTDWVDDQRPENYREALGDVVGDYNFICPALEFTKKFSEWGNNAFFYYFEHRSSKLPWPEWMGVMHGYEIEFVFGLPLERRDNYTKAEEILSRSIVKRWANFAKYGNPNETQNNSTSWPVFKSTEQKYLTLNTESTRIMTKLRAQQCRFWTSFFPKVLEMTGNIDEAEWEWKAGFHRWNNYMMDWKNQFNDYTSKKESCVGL
Assay: Inhibition of human serum BChE using butyrylthiocholine iodide as substrate preincubated for 20 mins followed by substrate addition and measured after 2 mins by DTNB-reagent based Ellman's method
Field: pIC50. Provide a value for each of the compounds that follow.
Give bare numbers, as −log10 of the molar value.

# example entries with known answers
SMILES ENTRY	pIC50
Nc1nonc1-c1nc2ccccc2n1CC(=O)Nc1cnc2ccccc2c1	7.80
Nc1nonc1-c1nc2ccccc2n1CC(=O)Nc1ccc([N+](=O)[O-])cc1	7.10
Nc1nonc1-c1nc2ccccc2n1CC(=O)Nc1ccnc2ccccc12	6.67
N#Cc1cccc(NC(=O)Cn2c(-c3nonc3N)nc3ccccc32)c1	6.60
Nc1nonc1-c1nc2ccccc2n1CC(=O)Nc1ccc(Br)c2ccccc12	7.49
Nc1nonc1-c1nc2ccccc2n1CC(=O)Nc1cccc(Br)c1	6.67
COC(=O)c1cccc(NC(=O)Cn2c(-c3nonc3N)nc3ccccc32)c1	6.74
Nc1nonc1-c1nc2ccccc2n1CC(=O)Nc1cccc(Cl)c1	6.89
Nc1nonc1-c1nc2ccccc2n1CC(=O)Nc1cccc([N+](=O)[O-])c1	7.60

Prompt line: Request - read-out pIC50 | tested on UniProtKB P06276 | compound `Nc1nonc1-c1nc2ccccc2n1CC(=O)Nc1cccc2ccccc12`
Response line: 7.66

###

Test: Cmax in ICR mouse brain at 10 mg/kg, po measured upto 240 mins
Format: ADME, organism-based
Set-up: route oral, dose 10 mg/kg, time <=240
ASSAY ENDPOINT: Cmax (ng/mL)
Numbers only, in ng/mL.

Prompt line: Given the entry `Nc1nonc1-c1nc2ccccc2n1CC(=O)Nc1cnc2ccccc2c1` , report its measured Cmax.
Response line: 12.1

###

Experiment: Ratio of drug concentration in brain to plasma of ICR mouse at 10 mg/kg, po measured after 2 hrs
Format: ADME, organism-based
ASSAY ENDPOINT: Kp at 2 h
One number for each entry.

Prompt line: Can you look up the measured Kp at 2 h of `Nc1nonc1-c1nc2ccccc2n1CC(=O)Nc1cnc2ccccc2c1` for me?
Response line: 2.43

###

Test: MRT (0 to infinity) in overnight fasted Sprague-Dawley rat at 10 mg/kg, iv measured upto 1440 mins by LC/MS/MS analysis
Format: ADME, organism-based
Conditions: in vivo
ASSAY ENDPOINT: MRT inf (h)
One number for each entry, in h.

Prompt line: Quick one: MRT inf of `Nc1nonc1-c1nc2ccccc2n1CC(=O)Nc1cnc2ccccc2c1` ?
Response line: 14.1

###

Target: Cholinesterase (Equus caballus, UniProt P81908)
Sequence (P81908 whole entry): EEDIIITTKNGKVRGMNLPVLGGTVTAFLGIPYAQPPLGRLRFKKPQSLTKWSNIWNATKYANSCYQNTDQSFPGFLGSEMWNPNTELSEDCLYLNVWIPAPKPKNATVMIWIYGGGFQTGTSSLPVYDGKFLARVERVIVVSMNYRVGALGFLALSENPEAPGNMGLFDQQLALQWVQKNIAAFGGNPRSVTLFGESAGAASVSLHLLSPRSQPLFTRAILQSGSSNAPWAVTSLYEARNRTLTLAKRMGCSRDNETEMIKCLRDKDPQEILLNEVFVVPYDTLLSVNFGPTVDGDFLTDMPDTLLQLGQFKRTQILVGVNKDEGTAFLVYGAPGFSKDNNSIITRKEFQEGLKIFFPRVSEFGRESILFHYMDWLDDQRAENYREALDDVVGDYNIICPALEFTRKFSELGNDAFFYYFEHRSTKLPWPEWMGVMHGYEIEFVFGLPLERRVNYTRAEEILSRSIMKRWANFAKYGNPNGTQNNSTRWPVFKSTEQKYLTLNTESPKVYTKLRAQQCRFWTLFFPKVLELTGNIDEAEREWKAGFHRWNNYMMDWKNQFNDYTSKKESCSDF
Assay: Inhibition of equine serum BChE using butyrylthiocholine iodide as substrate preincubated for 5 mins followed by substrate addition and measured after 2 mins by DTNB-reagent based Ellman's method
Answer each item with its documented IC50.
Answers are plain numbers, in nM.

Worked examples follow.
SMILES ENTRY	MEASUREMENT TARGET	UNIT	ENDPOINT VALUE
CC(=O)Nc1ccc(NC(=O)Cn2c(-c3nonc3N)nc3ccccc32)cc1	Cholinesterase (Equus caballus, UniProt P81908)	nM	6540
Cc1cccc(NC(=O)Cn2c(-c3nonc3N)nc3ccccc32)c1	Cholinesterase (Equus caballus, UniProt P81908)	nM	236
Nc1nonc1-c1nc2ccccc2n1CC(=O)Nc1cccc([N+](=O)[O-])c1	Cholinesterase (Equus caballus, UniProt P81908)	nM	31
COc1cc(NC(=O)Cn2c(-c3nonc3N)nc3ccccc32)cc(OC)c1OC	Cholinesterase (Equus caballus, UniProt P81908)	nM	6640

For each of the items listed, what is its IC50?
1. Nc1nonc1-c1nc2ccccc2n1CC(=O)Nc1ccc([N+](=O)[O-])cc1
2. Nc1nonc1-c1nc2ccccc2n1CC(=O)Nc1cccc2ccccc12
3. Nc1nonc1-c1nc2ccccc2n1CC(=O)Nc1ccc2c(c1)OCO2
4. Cc1cc2nc(-c3nonc3N)n(CC(=O)Nc3ccc4ncccc4c3)c2cc1C
5. CC(=O)c1ccc(NC(=O)Cn2c(-c3nonc3N)nc3ccccc32)cc1

Response line:
1. 30
2. 44
3. 2210
4. 11300
5. 2270

The origin of these recorded values is ChEMBL document CHEMBL5038583.
